- procedure_details: chemical genetic growth profiling, strain panel (AID 1159580);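 further: tested at 20 µM; growth read once vehicle control cultures reached saturation at 30 °C; 1 = growth at the plate median or of vehicle wells; lower values mean less growth of the strain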
- reported_conditions: S. cerevisiae deletion strains, growth OD, locus YDL132W, strain cdc53
Hit rate of the full screen: of about 5,500 compounds, about 2,000 (36%) were called active. Not shown: some 18% with an inconclusive outcome. No stated cut-off is given here; in the data, active means normalized growth mostly below about 0.91 (no sharp cut-off); inconclusive means no clear call, values can overlap the other calls; inactive means mostly above about 0.92. The list shows a part of the results.
Assign a class; possible classes are active, inactive

Outcome logged for O=S(=O)(Oc1ccc(-c2csnn2)cc1)c1ccccc1Cl in this assay:
inactive

Which result was noted for this molecule in the test: O=C(NOC(=O)c1ccccc1)c1ccccc1
active

Hi, sorry to bother you, what did the test record for Cc1cc(/C(N)=N\OC(=O)C(C)(C)C)cc(/C(N)=N\OC(=O)C(C)(C)C)c1 ?
inactive

Hey, what did the test say about CC(C)(C)c1cc(C(=O)Nc2ccc3c(c2)OCO3)n(Cc2ccc(F)cc2)n1 ?
inactive

Field: outcome | Entry: O=C(Nc1ccc(F)cc1F)c1cc(Cl)c(-n2cccc2)c(Cl)c1
inactive

Hi team, can someone confirm the assay call for O=S(=O)(Nc1ccccc1Oc1ccccc1)c1ccc(-c2ccno2)s1 ?
inactive

Dear all, I need the recorded test outcome for N/C(Cc1cccc2ccccc12)=N/OC(=O)c1ccc(Cl)cc1 , thank you.
inactive

// return assay outcome for CSc1n[nH]c(-c2cc(C(C)(C)C)oc2C)c1C#N
inactive

Name the outcome recorded for CSc1sc(C(=O)Sc2ccccc2)cc1S(=O)(=O)C(C)C in the assay.
inactive

====

Consider the following compounds; for each one, report its normalized growth.
- procedure_details: chemical genetic growth profiling, strain panel (AID 1159580);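 further: tested at 20 µM; growth read once vehicle control cultures reached saturation at 30 °C; 1 = growth at the plate median or of vehicle wells; lower values mean less growth of the strain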
- reported_conditions: S. cerevisiae deletion strains, growth OD, locus YDR388W, active compounds read low
Out of some 5,500 compounds screened, about 2,000 (36%) were called active. Not shown: some 18% with an inconclusive outcome. This is one part of the list.
API doc: respond with a numeric literal and nothing else, no unit.

Recorded normalized growth for CCCSc1ccc2nc(NC(=O)OC)[nH]c2c1 , please?
0.969

Name the recorded normalized growth for C/C1=C\CC(C)(C)/C=C/CC2(C)OC2CC1 (stereo not given) .
1.01

normalized growth for C=C1C[C@]23C[C@@]1(O)CC[C@H]2[C@@]12C=C[C@H](O)[C@@](C)(C(=O)O1)[C@H]2[C@@H]3C(=O)O ?
0.998

Find the recorded normalized growth belonging to CCCOc1ccc2nc(NC(=O)OC)[nH]c2c1 and report it.
0.981

I would be grateful if you could share the reported normalized growth for CC(C)CCCC(C)C1CCC2C3C[C@@H](O)[C@@]4(O)C[C@@H](O)CC[C@]4(C)C3CC[C@]12C (stereo not given in full) .
1.01

Given the compound CC(C)CCCC(C)[C@H]1CCC2C3CC=C4CC(=O)CC[C@]4(C)C3CC[C@@]21C (stereo not given in full) , what is its reported normalized growth?
0.964

Entry NCCCCCCNS(=O)(=O)c1cccc2c(Cl)cccc12 has what normalized growth?
0.99

State the recorded normalized growth for this entry: C/C1=C/CC(C)(C)/C=C/C/C(C)=C/CC1
0.998

Requested read-out: normalized growth. Entry: CC(=O)Oc1ccc(O)cc1
1.02

Would you mind telling me what normalized growth value was observed for CC(C)CCCC(C)[C@H]1CCC2C3CC[C@@H]4C[C@H](O)CC[C@]4(C)C3CC[C@@]21C (stereo not given in full) ?
1
